- ASSAYED SYSTEM: Voltage-gated potassium channel subunit beta-2 (Rattus norvegicus) (UniProt P62483)
- Sequence (P62483 whole entry, looked up): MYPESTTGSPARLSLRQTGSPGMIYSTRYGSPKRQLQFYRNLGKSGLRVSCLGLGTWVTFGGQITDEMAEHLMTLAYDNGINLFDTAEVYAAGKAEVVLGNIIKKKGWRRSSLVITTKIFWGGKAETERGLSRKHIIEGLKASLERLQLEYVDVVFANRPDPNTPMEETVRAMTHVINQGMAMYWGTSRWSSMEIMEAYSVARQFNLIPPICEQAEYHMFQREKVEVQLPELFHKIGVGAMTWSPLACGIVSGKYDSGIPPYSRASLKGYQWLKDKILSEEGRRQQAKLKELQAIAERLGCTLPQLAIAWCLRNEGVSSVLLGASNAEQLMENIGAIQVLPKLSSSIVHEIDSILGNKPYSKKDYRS
- ASSAY: inhibitors of rat Kvbeta2 reductase activity – biochemical, NADPH fluorescence, primary screen (AID 622);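 note: slope of raw intensity against log time taken from 70 to 1610 s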
- STATED CONDITIONS: recombinant KvBeta, 4-cyanobenzaldehyde reduction, at 10 µM, hits give high values
Overview of reported fluorescence slope across a group of compounds:
Form field (numeric): enter value without unit.

The cases that follow already have their fluorescence slope on record.
{"COMPOUND": "Cc1ccccc1C(=O)NC1CCN(Cc2nnnn2CCc2ccccc2)CC1", "fluorescence slope": -0.491}
{"COMPOUND": "O=C(Oc1ccc2ccc(OC(=O)N3CCOCC3)cc2c1)N1CCOCC1", "fluorescence slope": -0.238}
{"COMPOUND": "Cc1ccc(O)c(-c2cc3ccccc3[nH]2)c1", "fluorescence slope": -0.46}
{"COMPOUND": "COc1ccc(CNCC(=O)Nc2cc(C)nn2-c2nc(C)cc(C)n2)cc1OC", "fluorescence slope": -0.497}
{"COMPOUND": "CSc1nc(=NC(C)=O)ss1", "fluorescence slope": -0.528}

Task item: Give the reported value of fluorescence slope for this record: `c1ccc(CC2CCN(c3nc4ccccc4n4nnnc34)CC2)cc1`
Reply: -0.312

Task item: Give the reported value of fluorescence slope for this record: `CCOC(=O)c1csc(NC(=O)C2CCCCC2)n1`
Reply: -0.419

Task item: Give the reported value of fluorescence slope for this record: `CCn1nc(C(=O)OCC(=O)N2CCc3ccccc32)c2ccccc2c1=O`
Reply: -0.297

Task item: Give the reported value of fluorescence slope for this record: COc1ccccc1NC(=O)C(C)NS(=O)(=O)c1ccc(F)cc1 (stereo unspecified)
Reply: -0.476

Task item: Give the reported value of fluorescence slope for this record: CC(O)CN1C(=O)C(CC(=O)Nc2ccc(Cl)cc2)SC1=Nc1ccccc1 (stereo unspecified)
Reply: -0.453

Task item: Give the reported value of fluorescence slope for this record: O=C(c1ccc(Br)o1)N(c1ccc(Br)cc1)C1C=CS(=O)(=O)C1 (stereo unspecified)
Reply: -0.377
